Below: a set of entries, each annotated with reported iScore, MHC Class I Molecule A*0301.
Target: MHC class I allele A*0301 (A3) (Homo sapiens, UniProt P04439)
Assay: iScore multi-parametric analysis, A*0301
Format: binding
Conditions: level of binding: >0.5, 0.25-0.5, <0.25

{"molecule": "CC[C@H](C)[C@H](NC(=O)[C@H](C)NC(=O)CNC(=O)[C@@H](NC(=O)[C@@H](N)CC(C)C)[C@@H](C)CC)C(=O)N[C@@H](Cc1ccccc1)C(=O)N[C@@H](CC(C)C)C(=O)N[C@@H](CC(C)C)C(=O)N[C@H](C(=O)O)C(C)C [Peptide 183]", "iScore, MHC Class I Molecule A*0301": 0.07}
{"molecule": "CC(C)C[C@H](NC(=O)[C@H](Cc1ccc(O)cc1)NC(=O)[C@H](CC(C)C)NC(=O)[C@@H](NC(=O)[C@H](CC(C)C)NC(=O)[C@@H](N)CC(C)C)C(C)C)C(=O)N[C@@H](CC(N)=O)C(=O)N[C@@H](CCCNC(=N)N)C(=O)N[C@@H](CCCCN)C(=O)O [Peptide 186]", "iScore, MHC Class I Molecule A*0301": 0.372}
{"molecule": "CC(C)C[C@H](NC(=O)[C@H](C)NC(=O)[C@H](CC(C)C)NC(=O)[C@H](CCCNC(=N)N)NC(=O)[C@H](C)NC(=O)[C@H](CC(C)C)NC(=O)[C@H](CCCNC(=N)N)NC(=O)[C@H](CC(C)C)NC(=O)[C@@H](N)CCCNC(=N)N)C(=O)O [Peptide 8, RLRLARLAL]", "iScore, MHC Class I Molecule A*0301": 0.027}

* * *

Target: MHC class I allele A*0101 (A1) (Homo sapiens, UniProt P04439, A114D/A174V/A182V/D101N/D185E/E176A/E190D/L180R/Q94H/R68K/S129P/T187R/V100A/V91M/W191G)
Experiment: iTopia peptide binding assay, A*0101
Conditions: percent of positive control peptide binding; peptide at 1.11×10^−5M
quantity-kind: Peptide binding, MHC Class I Molecule A*0101

{"seq-string": "EDERQNRSF [Peptide 94]", "observed-result": "0 % of control"}
{"seq-string": "LCECSEAAR [Peptide 33]", "observed-result": "3 % of control"}
{"seq-string": "NIRDACRDH [Peptide 194]", "observed-result": "0 % of control"}
{"seq-string": "SGSNASVSA [Peptide 82]", "observed-result": "5 % of control"}
{"seq-string": "SAQPPLPDQ [Peptide 27]", "observed-result": "2 % of control"}
{"seq-string": "LKETEVVQG [Peptide 155]", "observed-result": "0 % of control"}
{"seq-string": "ACRDHMEGY [Peptide 196]", "observed-result": "3 % of control"}
{"seq-string": "LDNNPWVCD [Peptide 146]", "observed-result": "0 % of control"}
{"seq-string": "PPEDERQNR [Peptide 93]", "observed-result": "0 % of control"}
{"seq-string": "EGYHYRYEI [Peptide 199]", "observed-result": "0 % of control"}
{"seq-string": "NNPWVCDCH [Peptide 147]", "observed-result": "0 % of control"}
{"seq-string": "YRYEINADP [Peptide 201]", "observed-result": "0 % of control"}
{"seq-string": "IFLLVLYLN [Peptide 185]", "observed-result": "0 % of control"}
{"seq-string": "RLARLALVL [Peptide 9]", "observed-result": "2 % of control"}
{"seq-string": "AFSGSNASV [Peptide 81]", "observed-result": "2 % of control"}
{"seq-string": "DEVRAGAFE [Peptide 66]", "observed-result": "6 % of control"}
{"seq-string": "PDQCPALCE [Peptide 30]", "observed-result": "5 % of control"}
{"seq-string": "MRNRVLLEL [Peptide 165]", "observed-result": "0 % of control"}
{"seq-string": "VQGKDRLTC [Peptide 158]", "observed-result": "0 % of control"}
{"seq-string": "DLDCDPILP [Peptide 171]", "observed-result": "0 % of control"}
{"seq-string": "INADPRLTN [Peptide 203]", "observed-result": "0 % of control"}
{"seq-string": "QCPALCECS [Peptide 31]", "observed-result": "3 % of control"}
{"seq-string": "RDVLAQLPS [Peptide 114]", "observed-result": "1 % of control"}
{"seq-string": "CAYPEKMRN [Peptide 162]", "observed-result": "0 % of control"}
{"seq-string": "NHIVPPEDE [Peptide 91]", "observed-result": "6 % of control"}
{"seq-string": "LNLSGSRLD [Peptide 62]", "observed-result": "2 % of control"}
{"seq-string": "DCHMADMVT [Peptide 150]", "observed-result": "0 % of control"}
{"seq-string": "AALLAGRAL [Peptide 101]", "observed-result": "1 % of control"}
{"seq-string": "VSSSSPTSS [Peptide 15]", "observed-result": "3 % of control"}
{"seq-string": "PHIRVFLDN [Peptide 143]", "observed-result": "0 % of control"}
{"seq-string": "AELQGLPHI [Peptide 140]", "observed-result": "0 % of control"}
{"seq-string": "RDHMEGYHY [Peptide 197]", "observed-result": "11 % of control"}
{"seq-string": "AFEHLPSLR [Peptide 69]", "observed-result": "1 % of control"}
{"seq-string": "DNALKVLHN [Peptide 134]", "observed-result": "1 % of control"}
{"seq-string": "VVAALLAGR [Peptide 100]", "observed-result": "9 % of control"}
{"seq-string": "DPILPPSLQ [Peptide 173]", "observed-result": "0 % of control"}
{"seq-string": "PFAFSGSNA [Peptide 80]", "observed-result": "0 % of control"}
{"seq-string": "QPPLPDQCP [Peptide 28]", "observed-result": "6 % of control"}
{"seq-string": "ASAVSAQPP [Peptide 25]", "observed-result": "2 % of control"}
{"seq-string": "ECSEAARTV [Peptide 34]", "observed-result": "2 % of control"}
{"seq-string": "DRLTCAYPE [Peptide 160]", "observed-result": "0 % of control"}
{"seq-string": "SFRNLTHLE [Peptide 127]", "observed-result": "1 % of control"}
{"seq-string": "KGIKKWMHN [Peptide 190]", "observed-result": "3 % of control"}
{"seq-string": "RQLDLSHNP [Peptide 73]", "observed-result": "2 % of control"}
{"seq-string": "AGAFEHLPS [Peptide 68]", "observed-result": "6 % of control"}
{"seq-string": "SEAARTVKC [Peptide 35]", "observed-result": "5 % of control"}
{"seq-string": "TDLPAYVRN [Peptide 44]", "observed-result": "7 % of control"}
{"seq-string": "VRNLFLTGN [Peptide 47]", "observed-result": "0 % of control"}
{"seq-string": "SADLDCDPI [Peptide 170]", "observed-result": "0 % of control"}
{"seq-string": "RTVKCVNRN [Peptide 37]", "observed-result": "7 % of control"}
{"seq-string": "HNPLADLSP [Peptide 76]", "observed-result": "5 % of control"}
{"seq-string": "VKCVNRNLT [Peptide 38]", "observed-result": "6 % of control"}
{"seq-string": "LHLEDNALK [Peptide 132]", "observed-result": "4 % of control"}
{"seq-string": "ESLHLEDNA [Peptide 131]", "observed-result": "2 % of control"}
{"seq-string": "LPAYVRNLF [Peptide 45]", "observed-result": "7 % of control"}
{"seq-string": "RRPPLAELA [Peptide 57]", "observed-result": "2 % of control"}
{"seq-string": "SSSPTSSAS [Peptide 16]", "observed-result": "4 % of control"}
{"seq-string": "LELNSADLD [Peptide 168]", "observed-result": "0 % of control"}
{"seq-string": "ETEVVQGKD [Peptide 156]", "observed-result": "0 % of control"}
{"seq-string": "NGTLAELQG [Peptide 138]", "observed-result": "3 % of control"}
{"seq-string": "GAIFLLVLY [Peptide 184]", "observed-result": "0 % of control"}
{"seq-string": "CSRGPAAGD [Peptide 3]", "observed-result": "0 % of control"}
{"seq-string": "SLRQLDLSH [Peptide 72]", "observed-result": "0 % of control"}
{"seq-string": "PALCECSEA [Peptide 32]", "observed-result": "4 % of control"}
